target: TrkB (Homo sapiens (Human), UniProt Q16620 32-430); experiment: koff of Fab at 25 C; T1/2=Log2/koff
Sequence (Q16620 32-430 limits assumed): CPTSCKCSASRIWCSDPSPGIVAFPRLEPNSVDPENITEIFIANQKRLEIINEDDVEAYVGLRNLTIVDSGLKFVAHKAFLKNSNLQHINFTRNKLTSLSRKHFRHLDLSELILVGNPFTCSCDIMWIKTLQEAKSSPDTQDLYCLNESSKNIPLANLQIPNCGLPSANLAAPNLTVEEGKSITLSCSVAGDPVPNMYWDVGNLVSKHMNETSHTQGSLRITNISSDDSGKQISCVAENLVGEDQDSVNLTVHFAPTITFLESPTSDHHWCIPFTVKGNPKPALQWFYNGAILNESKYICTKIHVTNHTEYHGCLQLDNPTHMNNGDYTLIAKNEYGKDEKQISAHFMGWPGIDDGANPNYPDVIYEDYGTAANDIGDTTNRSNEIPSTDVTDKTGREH
Below: a set of entries, each annotated with reported T1/2.
State the answer as a number, implicitly in min.

13-A12 (Fab, V domains shown, Fab) VH: QVQLVQSGAEVKKPGASVKVSCKASGYTFTNYDIIWVRQAPGQGLEWMGYINPYNDGRKENEKFKGRVTMTRDTSTSTVYMELSSLRSEDTAVYYCARLLKYRRFRYYAIDYWGQGTTVTVSS VL: DIQMTQSPSSLSASVGDRVTITCRASENVYRNLAWYQQKPGKAPKLLIYAASNLQSGVPSRFSGSGSGTDYTFTISSLQPEDIATYYCQHFWYSPFTFGQGTKLEIK = 13

Give the value of T1/2 reported for the following: 13-F12 (Fab, V domains shown, Fab) VH: QVQLVQSGAEVKKPGASVKVSCKASGYTFTNYDIIWVRQAPGQGLEWMGYINPYNGRREYNEKFKGRVTMTRDTSTSTVYMELSSLRSEDTAVYYCARLLKYRRFRYYAIDYWGQGTTVTVSS VL: DIQMTQSPSSLSASVGDRVTITCRASENVYRNLAWYQQKPGKAPKLLIYAASNLQSGVPSRFSGSGSGTDYTFTISSLQPEDIATYYCQHFWGSPFTFGQGTKLEIK
13

Give the value of T1/2 reported for the following: 11-C7 (Fab, V domains shown, Fab) VH: QVQLVQSGAEVKKPGASVKVSCKASGYTFTNYDIIWVRQAPGQGLEWMGYINPYNRRIEYNEKFKGRVTMTRDTSTSTVYMELSSLRSEDTAVYYCARLLKYRRFRYYAIDYWGQGTTVTVSS VL: DIQMTQSPSSLSASVGDRVTITCRASENVYSHLAWYQQKPGKAPKLLIYAASNLQSGVPSRFSGSGSGTDFTFTISSLQPEDIATYYCQHFWGSPFTFGQGTKLEIK
4.9
